biological target: T1, human TF ECD-His (hTF-his) (human, UniProt P13726 33-251); test: SPR Biacore T200, antibody on Protein A chip, TF-His as analyte, 1:1 model
T1 construct: also called bio-hTF-his; human TF-His protein
QUANTITY MEASURED: koff (s⁻¹)
Field: numeric (s⁻¹). Do not append units.

Observe how each entry below is paired with its result.
hu67-16 (antibody, human IgG1, kappa, V domains shown) VH: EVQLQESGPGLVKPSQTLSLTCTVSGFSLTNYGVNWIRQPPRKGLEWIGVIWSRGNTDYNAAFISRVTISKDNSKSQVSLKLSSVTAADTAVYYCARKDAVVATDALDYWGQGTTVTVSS VL: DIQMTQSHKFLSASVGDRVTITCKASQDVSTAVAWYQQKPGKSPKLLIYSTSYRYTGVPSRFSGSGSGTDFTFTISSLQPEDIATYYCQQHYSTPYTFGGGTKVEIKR: 0.000702
hu10H10-53 (antibody, V domains shown, H11+L6; Full-length IgG) VH: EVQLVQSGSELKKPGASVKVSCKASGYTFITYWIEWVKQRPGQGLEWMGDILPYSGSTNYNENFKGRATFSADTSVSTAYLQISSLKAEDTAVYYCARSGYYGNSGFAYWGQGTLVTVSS VL: DIQMTQSPSSLSASVGDRVTITCKSSQSLLSSSNQKNYLTWYQQKPGKAPKLLIYWASTREEGVPSRFSGSGSGTDFTLTISSLQPEDFATYYCQNDYTYPLTFGQGTKLEIK: 7.34e-05

Next:
Lookup: For hu67-13 (antibody, human IgG1, kappa, V domains shown) VH: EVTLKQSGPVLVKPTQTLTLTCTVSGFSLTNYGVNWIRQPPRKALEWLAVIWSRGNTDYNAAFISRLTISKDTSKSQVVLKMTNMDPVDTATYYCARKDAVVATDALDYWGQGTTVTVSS VL: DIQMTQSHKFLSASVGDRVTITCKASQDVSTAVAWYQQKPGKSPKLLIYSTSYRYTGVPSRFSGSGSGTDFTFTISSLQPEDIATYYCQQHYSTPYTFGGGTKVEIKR , write its koff.
Found: 0.000577
